Sourced from patent US20230365592A1

target: human PAH with the R408W mutation (Homo sapiens, UniProt P00439, R408W); construct: expressed in transfected cells; assay: Cell Based Phenylalanine Flux Assay; settings: A375 cells expressing human R408W PAH; 24 hrs compound incubation; 13C-Tyrosine by LC-MS; average where tested multiple times; read-out: AC50;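 further: after compound treatment, cells received sepiapterin plus isotope-labelled Phenylalanine for 4 hours, then labelled Tyrosine in the medium was quantified, 10-point 2-fold dilution series run in duplicate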
I'd be grateful if you could share measured AC50 for these entries.

For the compound `Cn1nc(Cl)nc1C(=O)N1CCc2[nH]cnc2[C@H]1c1cc2c(F)cccn2n1` , what AC50 is on record? < 500 nM

For the compound `Fc1cccn2nc([C@@H]3c4nc[nH]c4CCN3c3ncccn3)cc12` , what AC50 is on record? < 500 nM

For the compound `CC(C)(F)c1nnc(C(=O)N2CCc3[nH]cnc3[C@@H]2c2cc3c(OC(F)F)cccn3n2)o1` , what AC50 is on record? > 5000 nM

For the compound `COc1cccn2nc([C@H]3c4nc[nH]c4CCN3C(=O)c3nnc(-c4ccn(C(F)F)n4)o3)cc12` , what AC50 is on record? > 5000 nM

For the compound `O=C(c1nnc(-c2ccn(C(F)(F)F)n2)o1)N1CCc2[nH]cnc2[C@H]1c1cc2ccccn2n1` , what AC50 is on record? < 500 nM

For the compound `FC(F)c1cccn2nc([C@@H]3c4nc[nH]c4CCN3c3nnc(C(F)(F)F)o3)cc12` , what AC50 is on record? < 500 nM

For the compound `CC(C)(O)c1nc(Cl)c(C(=O)N2CCc3[nH]cnc3[C@@H]2c2cc3c(Cl)cccn3n2)o1` , what AC50 is on record? > 5000 nM

For the compound `O=C(c1nnc(-c2cnn(C(F)F)c2)o1)N1CCc2[nH]cnc2[C@H]1c1cc2c(C(F)F)cccn2n1` , what AC50 is on record? < 500 nM

For the compound `O=C(c1nnc(C2CC(F)(F)C2)o1)N1CCc2[nH]cnc2[C@H]1c1cc2c(F)cccn2n1` , what AC50 is on record? 500 to 1000 nM

For the compound `FC(F)c1cccc2cc([C@@H]3c4nc[nH]c4CCN3c3nnc(-c4ccccn4)o3)nn12` , what AC50 is on record? 500 to 1000 nM

For the compound `O=C(c1cnn2ccccc12)N1CCc2[nH]cnc2[C@H]1c1cc2c(C(F)(F)F)cccn2n1` , what AC50 is on record? < 500 nM

For the compound `CC(C)(C)c1nnc(C(=O)N2CCc3[nH]cnc3[C@@H]2c2cc3c(F)cccn3n2)o1` , what AC50 is on record? 1000 to 5000 nM

For the compound `Cc1ccc2cc([C@@H]3c4nc[nH]c4CCN3C(=O)c3nnc(C4CC4)o3)nn2c1` , what AC50 is on record? 500 to 1000 nM

For the compound `O=C(c1nnc(-c2ncccn2)o1)N1CCc2[nH]cnc2[C@H]1c1cc2c(C(F)F)cccn2n1` , what AC50 is on record? 500 to 1000 nM

For the compound `Cn1cncc1-c1nc(C(F)F)c(C(=O)N2CCc3[nH]cnc3[C@H]2c2cc3ccccn3n2)o1` , what AC50 is on record? 500 to 1000 nM

====

I'd be grateful if you could share measured AC50 for these entries.
Target: human PAH with the R408W mutation (Homo sapiens, UniProt P00439, R408W)
Construct: expressed in transfected cells
Sequence (P00439 1-452 R408W): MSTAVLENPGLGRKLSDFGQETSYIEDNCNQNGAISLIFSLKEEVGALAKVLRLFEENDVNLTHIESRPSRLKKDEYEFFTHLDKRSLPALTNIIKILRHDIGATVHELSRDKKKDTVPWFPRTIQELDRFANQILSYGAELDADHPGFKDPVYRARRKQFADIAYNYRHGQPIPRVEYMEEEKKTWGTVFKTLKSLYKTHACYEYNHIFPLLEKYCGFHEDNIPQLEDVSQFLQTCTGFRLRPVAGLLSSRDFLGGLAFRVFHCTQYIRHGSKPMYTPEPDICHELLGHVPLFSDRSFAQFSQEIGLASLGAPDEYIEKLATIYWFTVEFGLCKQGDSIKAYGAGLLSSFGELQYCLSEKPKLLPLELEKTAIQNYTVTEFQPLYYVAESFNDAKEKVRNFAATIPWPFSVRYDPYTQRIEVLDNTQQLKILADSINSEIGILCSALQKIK
Assay: Cell Based Phenylalanine Flux Assay
Settings: A375 cells expressing R408W PAH; 24 hrs with compound, then 20 µM sepiapterin and 800 µM 13C9,15N-Phenylalanine for 4 hours; 13C-Tyrosine by LC-MS; average where tested multiple times; read-out: AC50

For the compound CN(C)C(=O)c1nnc(N2CCc3[nH]cnc3C2c2cc3c(F)cccn3n2)o1 (stereo not drawn) , what AC50 is on record? 1 to 5 µM

For the compound COc1cccn2nc([C@H]3c4nc[nH]c4CCN3C(=O)c3cc(C(C)(C)C)nn3C)cc12 (single isomer, unassigned) , what AC50 is on record? > 5 µM

For the compound CN(C)Cc1ccc2c(C(=O)N3CCc4[nH]cnc4C3c3cc4c(C(F)F)cccn4n3)cnn2c1 (stereo not drawn) , what AC50 is on record? 1 to 5 µM

For the compound c1cnnc(-c2nnc(N3CCc4[nH]cnc4C3c3cc4ccccn4n3)o2)c1 (stereo not drawn) , what AC50 is on record? 1 to 5 µM

For the compound CN(C)CCc1ccc2c(C(=O)N3CCc4[nH]cnc4[C@H]3c3cc4ccccn4n3)cnn2c1 (single isomer, unassigned) , what AC50 is on record? > 5 µM

For the compound Cc1nc(C(=O)N2CCc3[nH]cnc3C2c2cc3ccccn3n2)n(C)n1 (stereo not drawn) , what AC50 is on record? 1 to 5 µM

For the compound O=C(c1ccn(-c2ccccn2)n1)N1CCc2[nH]cnc2C1c1cc2c(F)cccn2n1 (stereo not drawn) , what AC50 is on record? 1 to 5 µM

For the compound CC(C)(O)c1nnc(C(=O)N2CCc3[nH]cnc3C2c2cc3cccc(C(F)F)n3n2)o1 (stereo not drawn) , what AC50 is on record? 1 to 5 µM

For the compound CN(C)Cc1ccc2c(C(=O)N3CCc4[nH]cnc4C3c3cc4c(F)cccn4n3)cnn2c1 (stereo not drawn) , what AC50 is on record? 1 to 5 µM

For the compound Cc1nc(C(C)(C)O)oc1C(=O)N1CCc2[nH]cnc2[C@H]1c1cc2ccccn2n1 (single isomer, unassigned) , what AC50 is on record? 1 to 5 µM

For the compound Cc1nnc(N2CCc3[nH]cnc3C2c2cc3cccc(F)n3n2)o1 (stereo not drawn) , what AC50 is on record? > 5 µM

For the compound COc1cccn2nc(C3c4nc[nH]c4CCN3C(=O)c3nnc(-c4ncccc4F)o3)cc12 (stereo not drawn) , what AC50 is on record? 1 to 5 µM

For the compound Cc1cccn2nc(C3c4nc[nH]c4CCN3c3nnc(-c4cccnn4)o3)cc12 (stereo not drawn) , what AC50 is on record? 1 to 5 µM

For the compound Fc1ncccc1-c1nnc(N2CCc3[nH]cnc3C2c2cc3ccccn3n2)o1 (stereo not drawn) , what AC50 is on record? 1 to 5 µM

For the compound Cc1nc(C(C)O)oc1C(=O)N1CCc2[nH]cnc2C1c1cc2cccc(C)n2n1 (stereo not drawn) , what AC50 is on record? 1 to 5 µM

For the compound FC(F)(F)c1cccn2nc(C3c4nc[nH]c4CCN3c3nnc(-c4cccnn4)o3)cc12 (stereo not drawn) , what AC50 is on record? 1 to 5 µM

For the compound Cc1nc(C(=O)N2CCc3[nH]cnc3C2c2cc3cccc(C(F)(F)F)n3n2)n(C)n1 (stereo not drawn) , what AC50 is on record? > 5 µM

For the compound Cc1cccc2cc(C3c4nc[nH]c4CCN3C(=O)c3nc(C(F)(F)F)nn3C)nn12 (stereo not drawn) , what AC50 is on record? > 5 µM
